Where do the numbers come from? From paper PMC9881156.

System under test: POT-2 (Caenorhabditis elegans, UniProt O45595 1-251)
Sequence: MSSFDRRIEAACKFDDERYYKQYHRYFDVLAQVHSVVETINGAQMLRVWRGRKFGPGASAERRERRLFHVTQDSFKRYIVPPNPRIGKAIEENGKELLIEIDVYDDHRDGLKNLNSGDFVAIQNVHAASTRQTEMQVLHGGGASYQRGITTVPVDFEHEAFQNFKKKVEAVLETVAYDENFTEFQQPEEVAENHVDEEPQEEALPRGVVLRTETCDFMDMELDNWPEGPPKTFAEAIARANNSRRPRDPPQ
Method description: EMSA
Applied conditions: room temperature; apparent; EMSA: 20 mM Tris-HCl pH 8.0, 50 mM NaCl, 1 mM MgCl2, 5 mM DTT, 50 ug/ml BSA, 4% Ficoll 400, on ice 10 min; competition and S4 Kd: same salts with 0.001% …
Measured parameter: Kd
Please give the number followed by its unit.

Query block: Return reported Kd. Input substance: fragment 7 / 12mer, (TTAGGC)2 3' overhang
Result block: 7.2 nM
